system: myeloid leukemia patient primary cells Pat.6; test: cell viability (% survival relative to DMSO control); higher = less cytotoxic; conditions: 100 nM; 72 h
Below, each of the compounds is paired with its reported cell viability value.
Measurement Name: cell viability (%)

INSERT INTO assay_data (chemical_smiles, measurement_name, inequality_symbol, reported) VALUES
  ('CN(C)CCNC(=O)c1cccn2c(=O)c3cc4ccccc4cc3nc12', 'cell viability', '>', 100),
  ('O=C(CCl)N(CCCNC(=O)C(F)(F)F)c1ccc([N+](=O)[O-])cc1', 'cell viability', '=', 70.2),
  ('O=C(Oc1cccc(F)c1OC(=O)c1cccc(O)c1)c1cccc(O)c1', 'cell viability', '=', 87.1),
  ('O=C(c1c2ccccc2cc2ccccc12)N1CCC(N2CCC[C@@H](C(=O)N3CCOCC3)C2)CC1', 'cell viability', '=', 96.6),
  ('Cc1nnc(-c2ccc(N3CCC(Oc4ccccc4C(F)(F)F)CC3)nn2)s1', 'cell viability', '=', 99.5),
  ('Clc1cc(Cl)c(OCC#CI)cc1Cl', 'cell viability', '=', 93.3),
  ('O=C(Cc1cccc(OC(F)(F)F)c1)Nc1ccc(CCCCc2nnc(NC(=O)Cc3ccccn3)s2)nn1', 'cell viability', '=', 79.1),
  ('O=C(/C=C/c1cccnc1)NCCCCC1CCN(C(=O)c2ccccc2)CC1', 'cell viability', '=', 24.6);

---

Each record here notes measured cell viability.
tested on: myeloid leukemia patient primary cells Pat.13; test: cell viability (% survival relative to DMSO control); higher = less cytotoxic; settings: 10 nM; 72 h
Where a name gives a salt, the structure may show the parent alone.
Measurement Name: cell viability (%)

INSERT INTO assay_data (compound, measurement_name, reported) VALUES
  ('O=C(c1c2ccccc2cc2ccccc12)N1CCC(N2CCC[C@@H](C(=O)N3CCOCC3)C2)CC1', 'cell viability', 89.6),
  ('CC(C)(Cc1ccccc1)NCC(O)c1ccc(O)c(NS(C)(=O)=O)c1 (centres undefined) [Zinterol hydrochloride]', 'cell viability', 99.8),
  ('CN(C)CCNC(=O)c1cccn2c(=O)c3cc4ccccc4cc3nc12', 'cell viability', 96.6),
  ('O=C(CCl)N(CCCNC(=O)C(F)(F)F)c1ccc([N+](=O)[O-])cc1', 'cell viability', 88.6);

---

tested on: HEL; assay: cell viability (% survival relative to DMSO control, bortezomib = 0%); higher = less cytotoxic; details: 10 nM; 72 h
Measurement Name: cell viability (%)

INSERT INTO results (compound, reported) VALUES
  ('Cl.NC1=CCCN1Cc1nc(O)nc(O)c1Cl [Tipiracil]', 102),
  ('O=C(/C=C/c1cccnc1)NCCCCC1CCN(C(=O)c2ccccc2)CC1 [Daporinad]', 2.97),
  ('NC(CCC(=O)NC(CSCc1ccc(Br)cc1)C(=O)NCC(=O)OC1CCCC1)C(=O)OC1CCCC1 (stereo not given) [S-para-Bromobenzylglutathione cyclopentyl diester]', 88.2),
  ('Cn1c2cc(S(C)=O)sc2c2cnn(Cc3cccc(N)c3)c(=O)c21 (stereo not given) [TEPP-46]', 96.2),
  ('CN1CC(=O)N2[C@H](c3ccc4c(c3)OCO4)c3[nH]c4ccccc4c3C[C@@H]2C1=O [Tadalafil]', 77.5),
  ('O=C(C(=O)c1ccc(Br)cc1)c1ccc(Br)cc1 [4,4''-Dibromobenzil]', 96.8),
  ('Fc1ccc(CNc2ncnc3ccc(F)cc23)cc1 [Spautin 1]', 98.3),
  ('c1ccc2nc(-c3nnc4sc(-c5cnccn5)nn34)ccc2c1', 96),
  ('O[C@H]1[C@H](O)[C@@H](O)CN2CC[C@H](O)[C@H]12 [Castanospermine]', 109),
  ('Clc1cc(Cl)c(OCC#CI)cc1Cl [Haloprogin]', 101),
  ('O=NN(CCCl)C(=O)NCCCl [Carmustine]', 114),
  ('O=C1N[C@@H]2[C@@H](O)[C@@H](O)[C@H](O)[C@@H](CO)N2C1=O [Kifunensine]', 105),
  ('Cn1cc(C[C@@H](N)C(=O)O)c2ccccc21 [Indoximod]', 97.1),
  ('Cc1cc(O)c2c(c1)C(=O)c1cc(O)cc(O)c1C2=O [Emodin]', 114),
  ('CCCC(CCC)C(=O)O [Valproic acid]', 103),
  ('CCCCCCCCCCCCC/C=C/[C@@H](O)[C@H](CO)N(C)C [N,N-Dimethylsphingosine]', 94.6),
  ('Cc1nnc(-c2ccc(N3CCC(Oc4ccccc4C(F)(F)F)CC3)nn2)s1 [MF-438]', 91.9),
  ('O=c1[nH]c(=O)n([C@H]2C[C@H](O)[C@@H](CO)O2)cc1I [Idoxuridine]', 90.5),
  ('c1ccc2c(c1)SCc1c-2[nH]c2ccccc12', 102),
  ('N=C(N)c1ccc(N=NNc2ccc(C(=N)N)cc2)cc1 [Diminazene]', 109);

---

Entries annotated with measured cell viability
system: LAMA-84; experiment: cell viability (% survival relative to DMSO control, bortezomib = 0%); higher = less cytotoxic; conditions: 1000 nM; 72 h
Measurement Name: cell viability

INSERT INTO assay_data (molecule, target_of_assay, reported) VALUES
  ('C=C1C(=O)O[C@H](CCCCCCCC)[C@H]1C(=O)O', 'LAMA-84', '104%'),
  ('C[C@H]1O[C@H](O[C@H]2[C@H](O)[C@@H](O)[C@@H](O[C@H]3[C@H](O)[C@@H](O)C(O)O[C@@H]3CO)O[C@@H]2CO)[C@H](O)[C@@H](O)[C@@H]1N[C@H]1C=C(CO)[C@@H](O)[C@H](O)[C@H]1O (mixture of isomers)', 'LAMA-84', '92.7%'),
  ('O=c1[nH]c(=O)n([C@H]2C[C@H](O)[C@@H](CO)O2)cc1I', 'LAMA-84', '87%');

---

Below, each entry is listed with its recorded cell viability.
tested on: HL-60; assay: cell viability (% survival relative to DMSO control); higher = less cytotoxic; settings: 0.1 µM; 72 h; co-treatment: GSK2194069 100 nM
Measurement Name: cell viability (%)

INSERT INTO measurements (molecule, reported) VALUES
  ('c1ccc2nc(-c3nnc4sc(-c5cnccn5)nn34)ccc2c1', 100),
  ('C[C@H]1O[C@H](O[C@H]2[C@H](O)[C@@H](O)[C@@H](O[C@H]3[C@H](O)[C@@H](O)C(O)O[C@@H]3CO)O[C@@H]2CO)[C@H](O)[C@@H](O)[C@@H]1N[C@H]1C=C(CO)[C@@H](O)[C@H](O)[C@H]1O (mixture of isomers) [Acarbose]', 97.7),
  ('C=C1C(=O)O[C@H](CCCCCCCC)[C@H]1C(=O)O [C75]', 102),
  ('O=C(C(=O)c1ccc(Br)cc1)c1ccc(Br)cc1 [4,4''-Dibromobenzil]', 105),
  ('NCc1ccc(-c2cccnc2)s1 [(5-Pyrid-3-YLTHIEN-2-YL)METHYLAMINE]', 107),
  ('CC(C)(CS(=O)(=O)[O-])NC(=O)CC[N+](C)(C)CCO', 102),
  ('COc1ccc2c(c1)c(CC(=O)O)c(C)n2C(=O)c1ccc(Cl)cc1 [Indomethacine]', 97.6),
  ('CN(C)C(=N)NC(=N)N [Metformin]', 109),
  ('O=C(c1c2ccccc2cc2ccccc12)N1CCC(N2CCC[C@@H](C(=O)N3CCOCC3)C2)CC1', 98.3),
  ('O=NN(CCCl)C(=O)NCCCl [Carmustine]', 98.9),
  ('Cl.NC1=CCCN1Cc1nc(O)nc(O)c1Cl [Tipiracil]', 97.8),
  ('CN1CC(=O)N2[C@H](c3ccc4c(c3)OCO4)c3[nH]c4ccccc4c3C[C@@H]2C1=O [Tadalafil]', 102),
  ('O=C(/C=C/c1cccnc1)NCCCCC1CCN(C(=O)c2ccccc2)CC1 [Daporinad]', 2.41),
  ('C=C1NC(=O)c2cc(CN(C)c3ccc(C(=O)N[C@@H](CCC(=O)O)C(=O)O)s3)ccc2N1 [Raltitrexed]', 53.7),
  ('CC(C)(F)C[C@H](N[C@@H](c1ccc(-c2ccc(S(C)(=O)=O)cc2)cc1)C(F)(F)F)C(=O)NC1(C#N)CC1 [Odanacatib]', 97.1),
  ('CCCC(CCC)C(=O)O [Valproic acid]', 98.1);

---

tested on: KG-1; assay: cell viability (% survival relative to DMSO control, bortezomib = 0%); higher = less cytotoxic; settings: 1 nM; 72 h
Measurement Name: cell viability (%)

INSERT INTO assay_data (molecule, measurement_name, reported) VALUES
  ('CC(=O)N[C@@H](CS)C(=O)O', 'cell viability', 113),
  ('CNC(=C[N+](=O)[O-])NCCSCc1ccc(CN(C)C)o1', 'cell viability', 104),
  ('CCC(CC#N)OC(=O)N[C@@H](C)c1cccc(NC(=O)Nc2ccc(-c3cnco3)c(OC)c2)c1 (stereo in doubt)', 'cell viability', 108),
  ('O[C@H]1[C@H](O)[C@@H](O)CN2CC[C@H](O)[C@H]12', 'cell viability', 120),
  ('N#Cc1ccc(C2CCCc3cncn32)cc1 (centres undefined)', 'cell viability', 108),
  ('CCCCCCCNC=O [N-Heptyl-Formamide]', 'cell viability', 99.6),
  ('Nc1nc(O)c2c(CCc3ccc(C(=O)N[C@@H](CCC(=O)O)C(=O)O)cc3)c[nH]c2n1', 'cell viability', 92),
  ('CC(C)(O)CNc1nc(Nc2ccnc(C(F)(F)F)c2)nc(-c2cccc(C(F)(F)F)n2)n1', 'cell viability', 103),
  ('Cl.OC[C@H]1NC[C@H](O)[C@@H](O)[C@H]1O', 'cell viability', 104);
